B1: PTPN9 (parent)
chain: LKGAFPARLKKVLIVGAPIWFRVP

variants of: B1; test: protein stability index of a GFP-peptide fusion (GPS, HEK-293T) (PSI 1-6); higher = more stable; conditions: c terminus: a fixed tail appended;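 note: lentivirally expressed fusions sorted by FACS into six bins by GFP to DsRed ratio, PSI derived from sequencing read proportions per bin multiplied by bin number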
Entries and their protein stability index
Respond using a number only.

• K11I = 2.21
• G16W = 1.74
• V12T = 2.61
• I14P = 2.98
• R8M = 2.46
• I14N = 1.37
• R22H = 2.47
• K10Y = 2.2

Please turn your attention to the following entry.
Input: Quick one: protein stability index of A4F ?
Output: 2.49

FYI, the data here is from the supplement of paper PMC10567573.
